Target: T1, murine CCL22 (Mus musculus, UniProt O88430 25-92)
T1 sequence: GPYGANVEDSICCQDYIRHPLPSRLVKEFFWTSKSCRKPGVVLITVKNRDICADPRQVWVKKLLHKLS
Test: SPR
REPORTED ENDPOINT: Kd (nM)

[[record]]
binder = "AJ102 (ssDNA) DNA: GCTGTGTGACTCCTGCAATAGGCGAGTGTGGGTGGGTGGGCGTTCTCAGTGGTTCTCAGTAGCAGCTGTATCTTGTCTCC"
recorded_result = 10.7

[[record]]
binder = "AJ82 (ssDNA) DNA: GCTGTGTGACTCCTGCAAGCTGTGGAGTCGTCGTTCGGGTTATGGGGGATGGGGTTGAGTGGCAGCTGTATCTTGTCTCC"
recorded_result = 24.8

